tested on: Mice; assay: animal or person; format: in vivo; conditions: Mus musculus, po, read-out: MES test Protection %
readout type: responders at 90 mg/kg (%)
Give the value in % but do not write % after it.

Example entries begin here.
COCO[C@@H](C)[C@@H](OC(N)=O)c1ccccc1F
33.3
COCO[C@@H](c1ccccc1I)[C@@H](OC(N)=O)C(C)C
100
CC[C@H](OC(N)=O)[C@@H](OCOC)c1ccccc1I
33.3
CO[C@@H](C)[C@@H](OC(N)=O)c1ccccc1Cl
100
COCO[C@@H](c1ccccc1Cl)[C@@H](OC(N)=O)C(C)C
100
COCO[C@@H](C)[C@@H](OC(N)=O)c1ccccc1Cl
100
COCO[C@H](c1ccccc1Cl)[C@@H](C)OC(N)=O
66.6
CCCC[C@@H](OC(N)=O)[C@H](OC)c1ccc(F)cc1
33.3

Query: Param request: responders at 90 mg/kg | system Mice | item COCO[C@H](c1ccccc1Cl)[C@H](C)OC(N)=O
Response: 100

Query: For Mice, give the measured responders at 90 mg/kg of the entry COCO[C@@H](c1ccccc1Cl)[C@@H](C)OC(N)=O
Response: 100
